Numbers sourced from patent US20110301235A1.

Experiment: Solubility measurements
Format: physicochemical
Conditions: 100 mM NaCl buffer, aqueous buffer, kinetic from dmso stock; 25 mM Hepes pH 7.4, 100 mM NaCl; 30 minutes at room temperature; centrifuged; absorbance at 260 nm; read-out: solubility (solubility limit)
Readout type: solubility at 30 min

Which solubility at 30 min reading was recorded for the molecule O=c1c2ccccc2[se]n1-c1ccccc1 [2-phenyl-1,2-benzisoselenazol-3(2H)-one, reference compound] ?
66 to 100 µM

---

Test: Solubility measurements
Type: physicochemical
Settings: aqueous buffer, kinetic from dmso stock; 25 mM Hepes pH 7.4, 100 mM NaCl; 30 minutes at room temperature; centrifuged; absorbance at 260 nm; read-out: solubility (solubility limit)
Listed molecules paired with reported solubility at 30 min
Your answer is read as µM, so omit the unit and give the number.

Which solubility at 30 min reading was recorded for the molecule Cl.NCCS[Se]c1ccccc1C(=O)Nc1ccccc1 ?
300

Follow-up entry: Cl.N[C@@H](CCC(=O)N[C@@H](CS[Se]c1ccccc1C(=O)Nc1ccccc1)C(=O)NCC(=O)O)C(=O)O
1000

Follow-up entry: CCOC(=O)CNC(=O)[C@H](CS[Se]c1ccccc1C(=O)Nc1ccccc1)NC(=O)CC[C@H](N)C(=O)O.Cl
1000

Follow-up entry: CCOC(=O)[C@@H](N)CS[Se]c1ccccc1C(=O)Nc1ccccc1.Cl
100

---

Listed compounds paired with reported solubility at 30 min
Experiment: Solubility measurements
Format: physicochemical
Conditions: pH 7.4, aqueous buffer, kinetic from dmso stock
Your answer is read as µM, so omit the unit and give the number.

Solved cases below.
Which solubility at 30 min reading was recorded for the compound O=C(Nc1ccccc1)c1ccccc1[Se]SCCS(=O)(=O)O ?
1000

Follow-up entry: CC(=O)N[C@@H](CS[Se]c1ccccc1C(=O)Nc1ccccc1)C(=O)O
300

Turning to the following compound.
Which solubility at 30 min reading was recorded for the compound CC(C)(CO)[C@@H](O)C(=O)NCCC(=O)NCCS[Se]c1ccccc1C(=O)Nc1ccccc1 ?
300
